The measured values listed here are drawn from patent US9296728B2.

# Protocol description: Pharmacokinetic study of Compound 20 in ICR mice
# Format: in vivo
# Experimental context: male, ICR, mouse, plasma, ip, 100 mg/kg, 100 mg/kg i.p., 1 h, n = 3, read-out: Plasma Concentration, Mean
# Protocol: 60 male ICR mice were split into two groups of 30. In each group the mice were prescribed Compound 20 at a dosage of 100 mg/kg. This dose was administered orally in group 1 and intraperitoneally in group 2. Each group of 30 mice was subdivided into groups of 3 mice. […] Plasma and Brain samples were centrifuged at 15777×g for 5 minutes, and 180 ul of supernatant was placed in a 96-well assay plate. […] 5 ul aliquots of each well were then analyzed using LC-MS/MS. […]
Endpoint name: concentration at 1 h (ng/mL)
One number for each entry, in ng/mL.

q: I would be grateful if you could share the reported concentration at 1 h for COc1cc(N(c2ccccc2)c2ccccc2)ccc1/C=C(\C#N)C(=O)O .
a: 34800

----------
# Protocol description: Pharmacokinetic study of Compound 20 in ICR mice
# Format: in vivo
# Experimental context: male, mouse, ip, 100 mg/kg i.p., plasma, mean
# Experimental: 60 male ICR mice were split into two groups of 30. In each group the mice were prescribed Compound 20 at a dosage of 100 mg/kg. This dose was administered orally in group 1 and intraperitoneally in group 2. Each group of 30 mice was subdivided into groups of 3 mice. […] Plasma and Brain samples were centrifuged at 15777×g for 5 minutes, and 180 ul of supernatant was placed in a 96-well assay plate. […] 5 ul aliquots of each well were then analyzed using LC-MS/MS. […]
Endpoint name: Cmax (µg/mL)
Answers are plain numbers, in µg/mL.

q: I would be grateful if you could share the reported Cmax for COc1cc(N(c2ccccc2)c2ccccc2)ccc1/C=C(\C#N)C(=O)O .
a: 61.3

----------
# Protocol description: Pharmacokinetic study of Compound 20 in ICR mice
# Format: in vivo
# Experimental context: male, ICR, mouse, plasma, ip, 100 mg/kg, 100 mg/kg i.p., 8 h, read-out: Plasma Concentration, individual animals (1#, 2#, 3#)
Endpoint name: concentration at 8 h
Give the number first and the unit second.

q: I would be grateful if you could share the reported concentration at 8 h for COc1cc(N(c2ccccc2)c2ccccc2)ccc1/C=C(\C#N)C(=O)O [Compound 20] .
a: 2760 ng/mL

----------
# Protocol description: Pharmacokinetic study of Compound 20 in ICR mice
# Format: in vivo
# Experimental context: male, ICR, mouse, plasma, ip, 100 mg/kg, 100 mg/kg i.p., 6 h, n = 3
Endpoint name: concentration at 6 h
Give the number first and the unit second.

q: I would be grateful if you could share the reported concentration at 6 h for COc1cc(N(c2ccccc2)c2ccccc2)ccc1/C=C(\C#N)C(=O)O .
a: 7850 ng/mL

----------
# Protocol description: Pharmacokinetic study of Compound 20 in ICR mice
# Assay type: in vivo
# Experimental context: male, ICR, mouse, plasma, po, 100 mg/kg, 100 mg/kg p.o., 0.25 h, n = 3, read-out: Plasma Concentration, Mean
Endpoint name: concentration at 0.25 h
Give the number first and the unit second.

q: I would be grateful if you could share the reported concentration at 0.25 h for COc1cc(N(c2ccccc2)c2ccccc2)ccc1/C=C(\C#N)C(=O)O .
a: 9130 ng/mL
